Collected literature values of pKi measured for Carbonic anhydrase 2 (Homo sapiens, UniProt P00918).
pKi: −log10 of the molar value.

# molecule, comparative-sign, pKi
records = [
    ("CC(=O)N1N=C(c2ccc(Cl)cc2Cl)CC1c1cccc(OS(N)(=O)=O)c1 (stereo not given)", "=", 7.92),
    ("COc1ccc(-c2c3n(c4c(=O)oc5cc(O)c(OC)cc5c24)CCc2c-3cc(OC)c(OC)c2O)cc1O", "<", 4.00),
    ("NS(=O)(=O)c1ccc(CCN(CCc2ccccc2)C(=O)CN(CCC(=O)O)CCc2ccccc2)cc1", "=", 7.14),
    ("COc1cc2oc(=O)ccc2cc1C(C)=O", "<", 4.00),
    ("NS(=O)(=O)c1ccc(-c2ccc(C(=O)c3ccccc3)cc2)cc1", "=", 8.37),
]

----------
Collected literature values of pKi measured for Carbonic anhydrase 2 (Homo sapiens).
pKi: −log10 of the molar value.
1 means recorded pKi is 7 or above; 0 means it is below 7.

# molecule, assigned-class
measured = [
    ("NS(=O)(=O)Nc1ccc(Cl)cc1", 1),
    ("C[C@H](CCC(=O)Nc1c(S(N)(=O)=O)cc(S(N)(=O)=O)c(Cl)c1Cl)[C@H]1CC[C@H]2[C@@H]3[C@@H](O)C[C@@H]4C[C@H](O)CC[C@]4(C)[C@H]3CC[C@]12C", 1),
    ("CC(=O)N1N=C(c2ccc(OS(N)(=O)=O)cc2)CC1c1c(Cl)cccc1Cl (stereo not drawn)", 1),
    ("COc1ccc(/C=C(\\C(C)=O)C(=O)Nc2ccc(S(N)(=O)=O)cc2)cc1", 1),
    ("Cc1nn(C)c2nnc(Nc3ccc(S(=O)(=O)N4CCN(C)CC4)cc3)nc12", 0),
    ("COc1ccc(-c2c3n(c4c(=O)oc5cc(OC)c(O)cc5c24)CCc2cc(OS(=O)(=O)O)c(OC)cc2-3)cc1O", 0),
    ("Nc1cccc(C(=O)N2CCN(C(=O)c3ccc(S(N)(=O)=O)cc3)CC2)c1", 1),
    ("C/C(=N\\NC(N)=O)c1nnn(-c2ccc(S(=O)(=O)Nc3nccs3)cc2)c1C", 0),
    ("C#CCCOS(N)(=O)=O", 0),
    ("COc1ccc(-c2cn(-c3ccc(S(N)(=O)=O)cc3)nn2)cc1", 1),
    ("CC/C(=N/Nc1ccc([N+](=O)[O-])cc1)Sc1cc(Cl)c(C)cc1S(N)(=O)=O", 0),
    ("Cc1ccc(S(=O)(=O)OCCOc2ccc3ccc(=O)oc3c2)cc1", 0),
    ("Cn1nc(Cc2ccccc2)c2c(=O)oc3ccccc3c21", 0),
    ("NS(=O)(=O)c1cc(C(=O)N[C@@H](CC(=O)O)C(=O)O)ccc1Cl", 0),
    ("C[C@@H](O)[C@H](NC(=O)c1ccc(Cl)c(S(N)(=O)=O)c1)C(=O)O", 0),
    ("CC(C)(C)n1c(=O)cc(-c2cc3ccccc3n2S(=O)(=O)c2ccccc2)[s+]1[O-] (stereo not drawn)", 0),
    ("O=C(CNS(=O)(=O)C(F)(F)C(F)(F)C(F)(F)C(F)(F)F)NO", 1),
    ("CC(=O)OC[C@H]1O[C@@H](O[C@H]2[C@H](OC(C)=O)[C@@H](OC(C)=O)[C@H](S(=O)(=O)NCc3ccc(S(N)(=O)=O)cc3)O[C@@H]2COC(C)=O)[C@H](OC(C)=O)[C@@H](OC(C)=O)[C@H]1OC(C)=O", 1),
    ("NS(=O)(=O)c1ccc(NS(=O)(=O)c2ccc([N+](=O)[O-])cc2)cc1", 1),
    ("CCCC(CCC)COS(N)(=O)=O", 0),
    ("Nc1cccc(-c2ccc(S(N)(=O)=O)cc2)c1", 1),
    ("CCOc1ccc(S(=O)(=O)N[C@H](C)CC)cc1-c1nnc2c(n1)c(C)nn2-c1ccc(C)cc1", 0),
    ("NS(=O)(=O)c1ccc(CCNC(=O)CN2C(=O)NC3(CCCCC3)C2=O)cc1", 1),
    ("CC(=O)c1cc2cc([N+](=O)[O-])ccc2oc1=O", 0),
    ("CCOc1ccc(S(=O)(=O)NCCN)cc1-c1nnc2c(n1)c(C)nn2C", 0),
    ("CS(=O)(=O)NO", 1),
    ("COC(=O)CCNS(=O)(=O)NCCC(=O)OC", 0),
    ("N#C/C(=C\\c1ccco1)C(=O)Nc1ccc(S(N)(=O)=O)cc1", 1),
    ("CC(C)C[C@H](NC(=O)c1ccc(Cl)c(S(N)(=O)=O)c1)C(=O)O", 0),
    ("COc1ccc(C2=NN(c3ccc(S(N)(=O)=O)cc3)C(=O)CC2)cc1", 1),
    ("CCCCCCN(CCCCCC)CC(=O)N(CCCN)CCc1ccc(S(N)(=O)=O)cc1", 0),
    ("CN(C)CCOCCOC(=O)c1cccc(S(=O)(=O)Nc2nnc(S(N)(=O)=O)s2)c1", 1),
    ("Cc1cn([C@H]2C[C@@H](n3cc(COC(=O)c4ccc(S(N)(=O)=O)cc4)nn3)[C@@H](CO)O2)c(=O)[nH]c1=O", 1),
    ("C[C@H](CCC(=O)Nc1nnc(S(N)(=O)=O)s1)[C@H]1CC[C@H]2[C@@H]3CC[C@@H]4C[C@H](O)CC[C@]4(C)[C@H]3C[C@H](O)[C@]12C", 1),
    ("COc1cccc(NS(=O)(=O)c2ccc3c(c2)C=CS3(=O)=O)c1", 0),
    ("CN1CCN(C(=S)SCC(=O)Nc2nc3ccc(S(N)(=O)=O)cc3s2)CC1", 1),
]

----------
Collected literature values of Ki measured for Carbonic anhydrase 2 (Homo sapiens).

# molecule, unit-spec, comparative-sign, Ki
data = [
    ("CC(=O)OC[C@H]1O[C@@H](NC(=S)Nc2ccc(S(N)(=O)=O)cc2)[C@H](OC(C)=O)[C@@H](OC(C)=O)[C@@H]1OC(C)=O", "nM", "=", 7),
    ("Cl.NS(=O)(=O)c1cc(S(=O)(=O)c2ccc(CN3CCOCC3)cc2)cs1", "nM", "=", 1.43),
    ("NS(=O)(=O)c1ccc(CN2C(=O)c3ccc(C(=O)Nc4ccccc4C(=O)O)cc3C2=O)cc1", "nM", "=", 10.5),
    ("CCOc1ccc(S(=O)(=O)N2CCNCC2)cc1-c1nnc2c(n1)c(C)nn2C", "nM", ">", 10000),
    ("C[C@H](CCC(=O)NCCC(=O)Nc1nnc(S(N)(=O)=O)s1)[C@H]1CC[C@H]2[C@@H]3[C@@H](O)C[C@@H]4C[C@H](O)CC[C@]4(C)[C@H]3CC[C@]12C", "nM", "=", 1.3),
    ("CC(=O)N1N=C(c2ccc(OS(N)(=O)=O)cc2)CC1c1ccccc1 (stereo not given)", "nM", "=", 8.9),
    ("O=C1NS(=O)(=O)c2cccc3c2N1CC3", "nM", "=", 1060),
    ("NS(=O)(=O)c1ccc(CCNC(=O)CN2C(=O)NC3(CCCC3)C2=O)cc1", "nM", "=", 6.9),
    ("COc1ccc(S(=O)(=O)N(Cc2ccc([N+](=O)[O-])cc2)C(C)C(=O)NO)cc1 (stereo not given)", "nM", ">", 200),
    ("NS(=O)(=O)NC(=O)NS(=O)(=O)c1ccc(F)cc1", "nM", "=", 20),
    ("CC(C)OC(=O)c1ccc(O)cc1O", "nM", "=", 510),
    ("CCCC(CCC)C(=O)Nc1nnc(S(N)(=O)=O)s1", "nM", "=", 6),
    ("Nc1c(Cl)cc(S(=O)(=O)Nc2nnc(S(N)(=O)=O)s2)cc1Br", "nM", "=", 0.6),
    ("NS(=O)(=O)c1ccc2nc(NC(=O)CSC(=S)N3CCOCC3)sc2c1", "nM", "=", 27.9),
    ("COc1ccc(S(=O)(=O)N(Cc2ccccc2)C(C)C(=O)NO)cc1 (stereo not given)", "nM", "=", 120),
    ("NC(=O)C[C@H](NC(=O)c1ccc(S(N)(=O)=O)cc1)C(=O)O", "nM", "=", 72),
    ("CC(=O)N1N=C(c2cccc(OS(N)(=O)=O)c2)CC1c1ccc(F)cc1 (stereo not given)", "nM", "=", 38),
    ("NCCCN(CCc1ccccc1)CC(=O)N(CCc1ccccc1)CCc1ccc(S(N)(=O)=O)cc1", "nM", "=", 367),
    ("O=C1N=C(Nc2ccc(S(=O)(=O)Nc3ncccn3)cc2)S/C1=C/c1coc2ccccc2c1=O", "nM", ">", 10000),
    ("CC(C)C[C@H](NC(=O)c1ccc(S(N)(=O)=O)cc1)C(=O)NCC(=O)O", "nM", "=", 9),
]
